Data credit: PubChem BioAssay

Test system: Lefty1
ASSAY_METHOD_TEXT: Lefty1 binders on small-molecule microarrays, primary screen, biochemical, small-molecule microarray, 635/667 nm fluorescence (AID 1139)
CONDITION_SET: small-molecule microarray binding, fluorescence 635/667; higher = more signal
QUANTITY: composite z-score
Respond numerically, and do not add a unit to the figure.

Bench note: what composite z-score did CC1(C)C(=O)C(c2ccccc2)=C2CN3C(=O)N(CCc4ccccc4)C(=O)C3(Cc3ccc(C(F)(F)F)cc3)C=C21 (centres undefined) show?
-0.285

// repeat for COC(=O)C(CC#Cc1ccc2c(c1)[C@]1(C(=O)N2)[C@H](c2ccc(OCCO)cc2)N2[C@H](c3ccccc3)[C@H](c3ccccc3)OC(=O)[C@H]2[C@@H]1C(=O)N1CCN(c2ncccn2)CC1)C(=O)OC and report
0.857

Try this compound too: Cc1ccccc1C(O)C1C=CC2C(=O)N(c3ccccc3)C(=O)C2N1Nc1ccc([N+](=O)[O-])cc1 (centres undefined)
0.0122

# context switch: different compound, same composite z-score
// query composite z-score value for entry C=CCC(OC(C)=O)[C@@H]1[C@@H](N(Cc2ccc(-c3ccccc3)cc2)C(=O)Cc2ccc(F)cc2)c2cc(OCCCO)ccc2N1C(=O)Cc1ccc2ccccc2c1 (some centres undefined)
-0.0639
